Test: in vivo
Conditions: male, Swiss, mouse, po, 100 mg/kg, Plasma t1/2, mouse po 100 mg/kg, Lipidic formulation CremophorRH40/Capryol90/Mygliol812N (10/20/70) diluted in ½ water
VALUE TYPE: half-life (h)
Entry rule: numbers only, all in h.

Given the entry CON=C1CC(C)OC(OC2C(C)CC(C)(OC(=O)NC(C)(C)CNS(=O)(=O)c3ccccc3)C(=O)C(C)C(OC(=O)CC(C)C)C(C)C(C(C)COC3OC(C)C(O)C(OC)C3OC)OC(=O)C(C)C(OC3CC(C)N(C)CC(C)O3)C2C)C1O (stereo not shown) , report its measured half-life.
4.2

###

Tested on: Mtb ribosome
Type: biochemical, Mycobacterium tuberculosis
Conditions: read-out: Inhibition of Mtb translation (IC50 μM)
Below is a list of entries, each paired with its recorded IC50 value.
The answer is to be given in µM; state only the numeric part.

# annotated cases, reported IC50 shown
- COMPOUND: "CO/N=C1\\C[C@@H](C)O[C@@H](O[C@@H]2[C@@H](C)[C@H](O[C@H]3C[C@@](C)(O)[C@@H](O)[C@H](C)O3)[C@@H](C)C(=O)O[C@H]([C@@H](C)CO[C@@H]3O[C@H](C)[C@@H](O)[C@@H](OC)[C@H]3OC)[C@H](C)[C@@H](OC(=O)CC(C)C)[C@@H](C)C(=O)[C@@](C)(OC(=O)NCc3ccccc3)C[C@@H]2C)[C@@H]1O"
  RESULT NUMBER: 0.044
- COMPOUND: "CON=C1C[C@@H](C)O[C@@H](O[C@@H]2[C@@H](C)[C@H](O[C@H]3C[C@@](C)(O)[C@@H](O)[C@H](C)O3)[C@@H](C)C(=O)O[C@H](C(C)CO[C@@H]3O[C@H](C)[C@@H](O)[C@@H](OC)[C@H]3OC)[C@H](C)[C@@H](OC(=O)CC(C)C)[C@@H](C)C(=O)[C@@](C)(OC(=O)NCCn3c([N+](=O)[O-])cnc3C)C[C@@H]2C)[C@@H]1O (stereo partly shown)"
  RESULT NUMBER: 0.054
- COMPOUND: "COC1C(OCC(C)C2OC(=O)C(C)C(OC3CC(C)(O)C(O)C(C)O3)C(C)C(OC3OC(C)CC(=O)C3O)C(C)CC(C)(O)C(=O)C(C)C(OC(=O)CC(C)C)C2C)OC(C)C(O)C1OC (stereo not shown)"
  RESULT NUMBER: 0.021

Shift focus to the following entry.
Record CON=C1C[C@@H](C)O[C@@H](O[C@@H]2[C@@H](C)[C@H](O[C@H]3C[C@@H](C)N(C)C[C@H](C)O3)[C@@H](C)C(=O)O[C@H](C(C)CO[C@@H]3O[C@H](C)[C@@H](O)[C@@H](OC)[C@H]3OC)[C@H](C)[C@@H](OC(=O)CC(C)C)[C@@H](C)C(=O)[C@@](C)(OC(=O)NCc3ccccc3)C[C@@H]2C)[C@@H]1O (stereo partly shown) : what is its IC50 with Mtb ribosome?
0.039
